# target.entity: BRD8(2) (Homo sapiens, UniProt Q9H0E9)
# Sequence (Q9H0E9 1099-1207 limits assumed): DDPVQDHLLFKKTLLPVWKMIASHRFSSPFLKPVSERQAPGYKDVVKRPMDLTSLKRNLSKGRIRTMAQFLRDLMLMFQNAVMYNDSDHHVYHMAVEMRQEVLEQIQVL
# run.description: BROMOscan ligand-binding assay
# details: KD, BROMOscan Gene Symbol BRD8(2)
pKd: −log10 of the molar value.

- molecule: "CCOC(=O)Nc1cc(-c2ccc(C)c(NS(C)(=O)=O)c2)nn2c(C)nnc12"
  target.entity: "BRD8(2) (Homo sapiens, UniProt Q9H0E9)"
  pKd: 4.40
- molecule: "CCCOc1ccn2c(C(C)=O)cc(-c3ccccc3S(C)(=O)=O)c2c1"
  target.entity: "BRD8(2) (Homo sapiens, UniProt Q9H0E9)"
  pKd: "< 4.00"
- molecule: "CCC(=O)N1CCOc2c(cc(-c3ccc(OC)c(OC)c3)cc2OCC2CCCN(C)C2)C1 (stereo not drawn)"
  target.entity: "BRD8(2) (Homo sapiens, UniProt Q9H0E9)"
  pKd: "< 4.00"

###

# target.entity: UniProt:Q9ULD4
# Sequence (Q9ULD4 589-693 limits assumed): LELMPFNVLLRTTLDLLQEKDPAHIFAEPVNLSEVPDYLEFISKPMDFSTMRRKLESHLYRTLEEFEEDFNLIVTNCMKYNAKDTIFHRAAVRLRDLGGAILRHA
# run.description: BROMOscan ligand-binding assay

- compound: "CCCS(=O)(=O)c1nc(NC2CC2)cc(-c2ccc3c(ccn3C3CC(C)(C)NC(C)(C)C3)c2)n1 [NVS-CECR2-1]"
  Kd: "> 30 µM"

###

# target.entity: PRMT3 (Homo sapiens)
# Construct: purchased DiscoverX BROMOscan (bromodomains); SGC in-house methyltransferase panel
# Sequence (O60678 whole entry): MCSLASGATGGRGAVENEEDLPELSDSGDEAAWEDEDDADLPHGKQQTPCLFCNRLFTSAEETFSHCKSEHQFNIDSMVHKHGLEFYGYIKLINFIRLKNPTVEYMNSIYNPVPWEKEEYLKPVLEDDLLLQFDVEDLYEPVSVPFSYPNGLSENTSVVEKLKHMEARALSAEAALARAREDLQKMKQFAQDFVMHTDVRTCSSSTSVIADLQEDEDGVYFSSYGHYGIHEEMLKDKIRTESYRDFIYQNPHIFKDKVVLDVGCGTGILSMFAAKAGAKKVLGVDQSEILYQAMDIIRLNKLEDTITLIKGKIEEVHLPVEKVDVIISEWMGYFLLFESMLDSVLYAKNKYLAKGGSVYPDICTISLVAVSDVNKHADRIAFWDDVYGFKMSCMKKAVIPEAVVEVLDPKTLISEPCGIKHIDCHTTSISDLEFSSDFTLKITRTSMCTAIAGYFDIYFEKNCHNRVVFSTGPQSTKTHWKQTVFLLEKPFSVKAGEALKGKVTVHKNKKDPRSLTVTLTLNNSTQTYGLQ
# run.description: Methyl transferase scintillation proximity assay
# Assay type: biochemical
# details: average of two measurements, read-out: MTases Inhibition (%)

- compound.smiles: "COc1cc(Cl)c(C(=O)N[C@@H](CN[C@H]2CC[C@@H](N)CC2)Cc2ccc(C#N)cc2)cc1-c1ccc(CN[C@H](C)c2ccc(C)cc2)o1"
  target.entity: "PRMT3 (Homo sapiens)"
  inhibition at 10 µM: "3%"
- compound.smiles: "Cc1c(NC(=O)c2cc(C(N)=O)nc3cc(F)ccc23)c(C(F)(F)F)nn1Cc1ccc(C(C)(C)C)cc1"
  target.entity: "PRMT3 (Homo sapiens)"
  inhibition at 10 µM: "5%"
- compound.smiles: "CN1C[C@H](Nc2cnn(C)c(=O)c2Br)C[C@H](c2ccccc2)C1"
  target.entity: "PRMT3 (Homo sapiens)"
  inhibition at 10 µM: "2%"
- compound.smiles: "Cc1c(NC(=O)c2cc(C(N)=O)nc3cc(F)ccc23)c(C(F)(F)F)nn1Cc1ccc(C#N)cc1"
  target.entity: "PRMT3 (Homo sapiens)"
  inhibition at 10 µM: "1%"
- compound.smiles: "CN(C)CCCOc1ccc(-c2cc(NCCCn3cccn3)nc(S(C)(=O)=O)n2)cc1"
  target.entity: "PRMT3 (Homo sapiens)"
  inhibition at 10 µM: "5%"
- compound.smiles: "Cc1nnc2c3ccccc3c(N[C@@H](C)[C@H](c3ccccc3)N(C)C)nn12"
  target.entity: "PRMT3 (Homo sapiens)"
  inhibition at 10 µM: "0%"
- compound.smiles: "CO[C@H]1CNC[C@@H](OCC2CCC(F)(F)CC2)[C@@H]1Nc1ncc(-c2cncc(C)c2)c2cc(C)c(=O)[nH]c12"
  target.entity: "PRMT3 (Homo sapiens)"
  inhibition at 10 µM: "3%"

###

# target.entity: UniProtKB Q12830
# run.description: BROMOscan ligand-binding assay
# details: KD, BROMOscan, FALZ

- compound: "COc1ccc(CCc2nc3cc(-c4c(C)noc4C)ccc3n2C[C@H](C)N2CCOCC2)cc1Cl [SGC-CBP30]"
  Kd: "81 µM"
